System: DoHH2 Human EBV-negative B Cell Lymphoma cells
Method: Anti-proliferation assay, Cell Titer-Glo (Example 6)
Format: cell-based
Experimental parameters: 96 total hours of culture
Protocol: To determine the antiproliferative activity of tris(8-quinolinolato)gallium(III) in human lymphoma tumor cell lines, anti-proliferation assays were conducted in the DoHH2. Granta 519, and WSU-DLCL2 cell lines. […] Luminescence was detected using a Tecan GENios microplate reader. Percent inhibition of cell growth was calculated relative to untreated control wells. […]
Reported property: IC50 (nM)

Compound: [Ga+3].[O-]c1cccc2cccnc12.[O-]c1cccc2cccnc12.[O-]c1cccc2cccnc12 [tris(8-quinolinolato)gallium(III)]
Units symbol: nM
Reported measurement: 213
